# measurement description: yeast display, Sf9 membrane polyspecificity reagent, FACS + sequencing; frameworks hold sequencing errors
endpoint label: polyreactivity (PSR sort gate)

seq_string=QVQLVESGGGLVQAGGSLRLSCAASGSTFEDYSMGWYRQAPGKERELVAAISHIGGSTYYADSVKGRFTISRDNAKNTVYLQMNSLKPDDTAVYYCAKGGFSSKFDYWGQGTQVTVSS endpoint_label="polyreactivity (PSR sort gate)" result="low polyreactivity"
seq_string=QVQLVESGGGLVQAGGSLLLSCAASGGTFGGYTMGWYRQAPVKERELVAAITRSGSSTFYADSVKGRFTISRDNAKNTVYLQMNSLKPEDTAVYYCAALWHAVFYADYDYWGQGTQVSVSS endpoint_label="polyreactivity (PSR sort gate)" result="high polyreactivity"
seq_string=QVQLVESGGGLVQAGGSLRLSCAASGSTFSYNAMGWYRQAPGKERELVAAISGSGGTTYYSDSVKGRFTISRDNAKNTVYLQMNSLKPEDTAVYYCAARPFRSWRYDYWGQGTQVTVSS endpoint_label="polyreactivity (PSR sort gate)" result="low polyreactivity"
seq_string=QVQLVESGGGLVQAGGSLRLICAASGFIFYPYAMGWYRQAPGKERELVAVITSGGRTYYADSVKGRFTISRDNAKNTVYLQMNSLKPEDTAVYYCNADTFQWWDIADVYVIVKYGYWGQGTQVTVSS endpoint_label="polyreactivity (PSR sort gate)" result="low polyreactivity"
seq_string=QVQLVESGGGLVQAGGSLRLSCAASGFIFRYNAMGWYIQAPGKERELVASIDWSGGSTYYADSVKGGFTISRDNAKITVYLQMNSLKPEDTEVYYCAADTSYWYDYYIDYVGYYYWGQGTQVTVSS endpoint_label="polyreactivity (PSR sort gate)" result="high polyreactivity"
seq_string=QVQLVESGGGLVQAGGSLSLSCAASGSILVGYAMGWYRQAPGKERELVARISTSGGSTTYYADSVKGRFTISRDNAKNTVYLQMNSLKPEDTAVYYCAADYKPYYRRRYDYWGQGTQVTVSS endpoint_label="polyreactivity (PSR sort gate)" result="low polyreactivity"
seq_string=QDQLVESGGGLVQAGGSLRLSCAASGLTFYVNAMGWYRQAPGTERELDAAITWSGGSTHYADSVKGRFTISRDNAKNTVYLQMNSLKPEDTAVYYCGRATFQNSYVAYDYCGQGTQVTVSS endpoint_label="polyreactivity (PSR sort gate)" result="low polyreactivity"
seq_string=QVQLVESGGGLVQAGGSLRLSCAASGFTFFDNAMGWYRQAPGKERELVAVISSGGRTYYADSVKGRFTISRDNAKNTVYLQMNSLTPEDTAVYYCNAARAQRVKYDYWGQGTQVTVSS endpoint_label="polyreactivity (PSR sort gate)" result="high polyreactivity"
seq_string=QVQLVESGGGVVQAGGSLRLSCAASGFLFSHNAMGWYRQAPGKERELVASITSAGTTYYADSVKGRFTISRDNAKNTVYLQMNSLKPEDTAVYYCNKGGSSPVDIYITGDGDYWGQGTQVTVSS endpoint_label="polyreactivity (PSR sort gate)" result="low polyreactivity"
seq_string=QVQHVESGGGVVQAGGSLRLSCAASGSIFSRYTMGWYRQAPGKERELVAAITSSGGRTYYADSVKGRFTISRDNAKNTVYLQMNSLKPEDTSVYYFDARIPKQQGYGYWGQGTQVTVSS endpoint_label="polyreactivity (PSR sort gate)" result="high polyreactivity"
seq_string=QVQLVESGGGLVQAGGSLRLSCAASGFTYKYYVMGWYRQAPGKERELVASISKRGGSTRYADSVKGRFTISRDYAKNTVYLQMNSLKPEDNAVYYCAAAFVRRPPYVGYSRFDYWGQGTQVTVSS endpoint_label="polyreactivity (PSR sort gate)" result="high polyreactivity"
